Experiment: Aqueous solubility of the compound at pH 7.4 after 24 hrs agitation
Format: physicochemical
measuredParameter: solubility at 24 h (µM)
Please state the figure in µM; there is no need to write the unit.

Input line: Requested read-out: solubility at 24 h. Entry: CCCCCCCCn1cc(CN(CC)CC)c2cc(-c3cccc(C)c3)ccc21
Output line: 1.1

====

Biological target: Protein-S-isoprenylcysteine O-methyltransferase (Homo sapiens)
Sequence (O60725 whole entry): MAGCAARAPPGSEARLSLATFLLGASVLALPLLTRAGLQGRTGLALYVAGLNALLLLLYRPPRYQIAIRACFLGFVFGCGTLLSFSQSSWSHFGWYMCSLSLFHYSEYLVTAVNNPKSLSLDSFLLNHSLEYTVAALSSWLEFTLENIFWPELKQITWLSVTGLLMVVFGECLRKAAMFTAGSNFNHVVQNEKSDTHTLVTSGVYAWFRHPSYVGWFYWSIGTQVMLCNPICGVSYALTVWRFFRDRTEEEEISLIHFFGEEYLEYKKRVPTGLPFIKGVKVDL
Test: Inhibition of recombinant Icmt (unknown origin) expressed in Sf9 cells assessed as transfer of methyl group from [3H]-S-adenosylmethionine to [3H]-biotin-S-farnesyl-L-cysteine after 30 mins
measuredParameter: IC50 (nM)
Express your answer in nM, writing the number without its unit.

Input line: Which IC50 value is on record for CCCCCCCCn1cc(CN(CC)CC)c2cc(F)ccc21 ?
Output line: 4420

Input line: Next up: CCCCCCCCn1cc(CN(CC)CC)c2cc(-c3ccncc3F)ccc21
Output line: 960

Input line: Try CCCCCCCCn1cc(CN(CC)CC)c2cc(-c3ccc(N(C)C)nc3)ccc21 next.
Output line: 1630

Input line: Quick one: CCCCCCCCn1cc(CN(CC)CC)c2ccc(F)cc21
Output line: 2220
